Data credit: the supplement of paper PMC10567573

B1: PCMTD2 (parent)
chain: FFIRTSDSFDKFDFCEPSFVTGNC

Variants of: B1
Test: protein stability index of a GFP-peptide fusion (GPS, HEK-293T) (PSI 1-6); higher = more stable;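 note: lentivirally expressed fusions sorted by FACS into six bins by GFP to DsRed ratio, PSI derived from sequencing read proportions per bin multiplied by bin number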
Conditions: c terminus: a fixed tail appended
OUTCOME MEASURE: protein stability index
// keep it numeric: no unit symbol after the value

**Query** Please look up its protein stability index: "S18H"
**Result** 3.19

**Query** Please look up its protein stability index: "P17E"
**Result** 2.18

**Query** Please look up its protein stability index: "C24D"
**Result** 1.64

**Query** Please look up its protein stability index: "D10A"
**Result** 2.7

**Query** Please look up its protein stability index: "D7E"
**Result** 3.48

**Query** Please look up its protein stability index: "D13E"
**Result** 2.74

**Query** Please look up its protein stability index: "G22A"
**Result** 2

**Query** Please look up its protein stability index: "F1N"
**Result** 2.4

**Query** Please look up its protein stability index: "D10F"
**Result** 3.53

**Query** Please look up its protein stability index: "T5L"
**Result** 2.48

**Query** Please look up its protein stability index: "T21V"
**Result** 3.86

**Query** Please look up its protein stability index: "F12R"
**Result** 1.77

**Query** Please look up its protein stability index: "S18G"
**Result** 2.81

**Query** Please look up its protein stability index: "D10N"
**Result** 2.72

**Query** Please look up its protein stability index: "F2N"
**Result** 2.35

**Query** Please look up its protein stability index: "I3M"
**Result** 1.98

**Query** Please look up its protein stability index: "C24Q"
**Result** 2.85

**Query** Please look up its protein stability index: "K11V"
**Result** 3.4

**Query** Please look up its protein stability index: "T5F"
**Result** 2.61

**Query** Please look up its protein stability index: "T21W"
**Result** 2.76

**Query** Please look up its protein stability index: "C24P"
**Result** 1.74

**Query** Please look up its protein stability index: "R4P"
**Result** 1.85

**Query** Please look up its protein stability index: "D10I"
**Result** 2.31

**Query** Please look up its protein stability index: "F14Q"
**Result** 1.89

**Query** Please look up its protein stability index: "F19A"
**Result** 1.69

**Query** Please look up its protein stability index: "D13C"
**Result** 2.21

**Query** Please look up its protein stability index: "D13F"
**Result** 3.38

**Query** Please look up its protein stability index: "P17W"
**Result** 4.64

**Query** Please look up its protein stability index: "F19R"
**Result** 2.21

**Query** Please look up its protein stability index: "T21Y"
**Result** 2.49

**Query** Please look up its protein stability index: "T21G"
**Result** 3.28

**Query** Please look up its protein stability index: "R4C"
**Result** 3.1

**Query** Please look up its protein stability index: "F19V"
**Result** 2.06

**Query** Please look up its protein stability index: "F14R"
**Result** 2.37

**Query** Please look up its protein stability index: "K11N"
**Result** 2.42

**Query** Please look up its protein stability index: "F14Y"
**Result** 2.92

**Query** Please look up its protein stability index: "D13P"
**Result** 2.4

**Query** Please look up its protein stability index: "K11G"
**Result** 2.57

**Query** Please look up its protein stability index: "K11S"
**Result** 3.53

**Query** Please look up its protein stability index: "D10Q"
**Result** 2.54

**Query** Please look up its protein stability index: "T5Y"
**Result** 2.88

**Query** Please look up its protein stability index: "F19D"
**Result** 2.11

**Query** Please look up its protein stability index: "F2I"
**Result** 2.55

**Query** Please look up its protein stability index: "D7G"
**Result** 2.55

**Query** Please look up its protein stability index: "T5C"
**Result** 2.77

**Query** Please look up its protein stability index: "C24G"
**Result** 2.09
